Assay: Parallel artificial membrane permeability assay (PAMPA)
Settings: 50 μM, 25 ℃, 3 h, verapamil = 100%, ranitidine = 0%
Measured parameter: Permeability (%)

> print(dat)
                                   compound  measured.parameter  observed.result
1  O=C1C=C(O)C(=O)c2c(O)cccc21 [Compound 25, 2,8-Dihydroxynaphthalene-1,4-dione]    Permeability (%)             5.21
2  COc1ccc(SC2=C(O)C(=O)c3c(O)cccc3C2=O)cc1    Permeability (%)             1.08
3            CCCCCSC1=CC(=O)c2cccc(O)c2C1=O    Permeability (%)             91.9
4             CN(C)C1=CC(=O)c2c(O)cccc2C1=O    Permeability (%)             30.2

1 = O=C1C=C(SC[C@H]2OC(O)[C@H](O)[C@@H](O)[C@@H]2O)C(=O)c2c(O)cccc21 (mixture of isomers)
2 = CC(=O)OC[C@H]1O[C@@H](SC2=C(c3ccc(O)cc3O)C(=O)c3c(O)cccc3C2=O)[C@H](OC(C)=O)[C@@H](OC(C)=O)[C@@H]1OC(C)=O
3 = CC(=O)OC1O[C@H](CSC2=CC(=O)c3cccc(O)c3C2=O)[C@@H](OC(C)=O)C(OC(C)=O)[C@H]1OC(C)=O (stereo in doubt)
In: List from greatest to least Permeability (%). Your answer should be the labels, listed in the requested order.
Out: 2, 3, 1
(2: 28.86%, 3: 10.64%, 1: -0.96%)

1 = COc1ccccc1SC1=CC(=O)c2cccc(O)c2C1=O
2 = COc1ccc(SC2=CC(=O)c3cccc(O)c3C2=O)cc1
3 = CC(C)(C)c1ccc(CSC2=CC(=O)c3cccc(O)c3C2=O)cc1
4 = O=C1C=C(c2ccc(O)cc2O)C(=O)c2c(O)cccc21
In: Put these in order: smallest Permeability (%) first, largest last. Your answer should be the labels, listed in the requested order.
Out: 3, 1, 4, 2
(3: 17.1%, 1: 28.4%, 4: 42.95%, 2: 80.43%)

a = COc1ccc(OC2=CC(=O)c3cccc(O)c3C2=O)cc1
b = CN(C)C1=CC(=O)c2cccc(O)c2C1=O
c = CC(C)(C)c1ccc(SC2=CC(=O)c3cccc(O)c3C2=O)cc1
d = O=C1C(O)=CC(=O)c2c(O)cccc21 [Compound 26, 3,8-Dihydroxynaphthalene-1,4-dione]
In: Put these in order: smallest Permeability (%) first, largest last. Your answer should be the labels, listed in the requested order.
Out: d, c, b, a
(d: 5.17%, c: 8.5%, b: 16.7%, a: 61.4%)

###

Biological target: purified human recombinant PDI (rPDI) (Homo sapiens)
Sequence (P07237 18-508): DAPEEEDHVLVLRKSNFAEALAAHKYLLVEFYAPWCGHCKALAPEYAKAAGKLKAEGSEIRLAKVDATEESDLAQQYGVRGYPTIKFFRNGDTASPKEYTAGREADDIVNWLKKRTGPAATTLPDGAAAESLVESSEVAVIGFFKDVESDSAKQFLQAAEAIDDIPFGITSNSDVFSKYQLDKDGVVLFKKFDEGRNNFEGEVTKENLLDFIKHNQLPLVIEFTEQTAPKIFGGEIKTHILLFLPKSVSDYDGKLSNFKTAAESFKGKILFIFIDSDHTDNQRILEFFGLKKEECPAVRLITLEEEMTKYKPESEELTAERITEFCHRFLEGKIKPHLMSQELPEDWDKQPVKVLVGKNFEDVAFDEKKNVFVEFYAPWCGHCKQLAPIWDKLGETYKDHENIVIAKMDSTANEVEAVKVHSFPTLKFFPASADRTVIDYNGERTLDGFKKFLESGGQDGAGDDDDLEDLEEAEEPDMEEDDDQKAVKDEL
Test: Recombinant PDI reductase activity (Di-E-GSSG assay)
Conditions: read-out: PDI IC50; human recombinant PDI, Di-E-GSSG, Table 4
Measured parameter: IC50 (nM)
Report as a plain number; the unit nM is understood.

> print(dat)
                                   molecule                             system.tested  unit.name  observed.result
1  O=C1C=CC(=O)c2c(O)cccc21 [JUG (7), 5-hydroxy-1,4-naphthoquinone, reference compound]  purified human recombinant PDI (rPDI) (Homo sapiens)         nM             1100

Read the next record carefully.
In: Tell me the measured IC50 of CC(=O)OC[C@H]1O[C@H](OC2=CC(=O)c3cccc(O)c3C2=O)[C@H](OC(C)=O)[C@@H](OC(C)=O)[C@@H]1OC(C)=O , please.
Out: 630

###

Molecular target: purified human recombinant PDI (rPDI) (Homo sapiens)
Experiment: Recombinant PDI reductase activity (Di-E-GSSG assay)
Details: read-out: rPDI IC50; human recombinant PDI, Di-E-GSSG, 5 μM DTT
pIC50: −log10 of the molar value.
Measured parameter: pIC50

Below, 5 molecules whose answers are already recorded.
> print(dat)
                                   molecule  observed.result
1   COc1ccc(SC2=CC(=O)c3cccc(O)c3C2=O)cc1OC             4.85
2  CC(C)(C)c1ccc(CSC2=CC(=O)c3cccc(O)c3C2=O)cc1             5.70
3  O=C1C=C(Br)C(=O)c2c(O)cccc21 [Compound 17, 2-Bromo-8-hydroxynaphthalene-1,4-dione]             5.70
4       COc1ccccc1SC1=CC(=O)c2cccc(O)c2C1=O             5.87
5    O=C1C=C(Sc2ccc(O)cc2)C(=O)c2c(O)cccc21             5.82

A = O=C1C=C(c2ccc(O)cc2O)C(=O)c2c(O)cccc21
B = COc1ccc(SC2=CC(=O)c3cccc(O)c3C2=O)cc1
C = COc1ccc(SC2=C(c3ccc(O)cc3O)C(=O)c3c(O)cccc3C2=O)cc1
D = O=C1C=C(SC[C@H]2OC(O)[C@H](O)[C@@H](O)[C@@H]2O)C(=O)c2c(O)cccc21 (mixture of isomers)
In: Put these in order: smallest pIC50 first, largest last. Your answer should be the labels, listed in the requested order.
Out: D, C, B, A

###

Target: platelet surface PDI (Homo sapiens, UniProt P07237)
Sequence (P07237 18-508): as above
Assay: Cell surface PDI reductase activity on intact human platelets (Di-E-GSSG assay)
Settings: read-out: Surface PDI IC50; intact human platelets, Di-E-GSSG, 5 μM DTT
Measured parameter: IC50 (nM)

Below, 2 compounds whose answers are already recorded.
> print(dat)
                                   compound  measured.parameter  observed.result
1  CCCCCSC1=CC(=O)c2cccc(O)c2C1=O [Compound 16]                IC50              880
2  CC(=O)OC[C@H]1O[C@H](OC2=CC(=O)c3cccc(O)c3C2=O)[C@H](OC(C)=O)[C@@H](OC(C)=O)[C@@H]1OC(C)=O [Compound 22]                IC50              620

A = CC(=O)OC[C@H]1O[C@@H](SC2=C(c3ccc(O)cc3O)C(=O)c3c(O)cccc3C2=O)[C@H](OC(C)=O)[C@@H](OC(C)=O)[C@@H]1OC(C)=O [Compound 31]
B = O=C1C=C(SC[C@H]2OC(O)[C@H](O)[C@@H](O)[C@@H]2O)C(=O)c2c(O)cccc21 (mixture of isomers) [Compound 19]
C = O=C1C=C(Sc2ccc(O)cc2)C(=O)c2c(O)cccc21 [Compound 14]
In: List from greatest to least IC50. Your answer should be the labels, listed in the requested order.
Out: B, C, A
(B: 1170 nM, C: 770 nM, A: 460 nM)

###

Tested on: washed human platelets
Assay: Collagen-induced platelet aggregation
Assay type: cell-based
Details: Platelet; washed human platelets, collagen (5 μg/mL)
Measured parameter: IC50 (nM)

> print(dat)
                                 molecule  measured.parameter  observed.result
1  O=C1C=C(Sc2ccc(O)cc2)C(=O)c2c(O)cccc21                IC50              750

a = CC(=O)OC[C@H]1O[C@@H](SC2=C(c3ccc(O)cc3O)C(=O)c3c(O)cccc3C2=O)[C@H](OC(C)=O)[C@@H](OC(C)=O)[C@@H]1OC(C)=O
b = CCCCCSC1=CC(=O)c2cccc(O)c2C1=O
In: I would appreciate it if you could say which entry, a or b , has the lower IC50 value. Respond with the label that goes with your answer.
Out: b
(b: 2570 nM, a: 6650 nM)

a = CC(=O)OC1O[C@H](CSC2=CC(=O)c3cccc(O)c3C2=O)[C@@H](OC(C)=O)C(OC(C)=O)[C@H]1OC(C)=O (stereo in doubt)
b = O=C1C=C(Sc2ccc(F)cc2)C(=O)c2c(O)cccc21
In: Pick one: a or b . Which has the bigger IC50 number? Respond with the label that goes with your answer.
Out: b
(b: 830 nM, a: 560 nM)

###

Experiment: Parallel artificial membrane permeability assay (PAMPA)
Conditions: 50 μM, 25 ℃, 3 h, verapamil = 100%, ranitidine = 0%
Measured parameter: Permeability (%)

1 = O=C1C=C(Sc2ccc(F)cc2)C(=O)c2c(O)cccc21
2 = COc1ccc(SC2=C(O)C(=O)c3cccc(O)c3C2=O)cc1
In: Pick one: 1 or 2 . Which has the bigger Permeability (%) number? Respond with the label that goes with your answer.
Out: 1
(1: 85.4%, 2: 9.28%)

A = COc1ccc(SC2=CC(=O)c3cccc(O)c3C2=O)cc1OC
B = CNC(=C[N+](=O)[O-])NCCSCc1ccc(CN(C)C)o1 [Ranitidine, reference compound]
In: Pick one: A or B . Which has the bigger Permeability (%) number? Respond with the label that goes with your answer.
Out: A

1 = O=C1C=C(Br)C(=O)c2c(O)cccc21 [Compound 17, 2-Bromo-8-hydroxynaphthalene-1,4-dione]
2 = COc1cccc(SC2=CC(=O)c3cccc(O)c3C2=O)c1
In: I would appreciate it if you could say which entry, 1 or 2 , has the lower Permeability (%) value. Respond with the label that goes with your answer.
Out: 1
(1: 16.9%, 2: 38.9%)

Where these numbers come from: paper PMC10945480
